assayed_target: Epidermal growth factor receptor (EGFR)(L858R)(T790M) (Homo sapiens, UniProt P00533, L858R/T790M)
Sequence (P00533 25-1210 T790M/L858R limits assumed): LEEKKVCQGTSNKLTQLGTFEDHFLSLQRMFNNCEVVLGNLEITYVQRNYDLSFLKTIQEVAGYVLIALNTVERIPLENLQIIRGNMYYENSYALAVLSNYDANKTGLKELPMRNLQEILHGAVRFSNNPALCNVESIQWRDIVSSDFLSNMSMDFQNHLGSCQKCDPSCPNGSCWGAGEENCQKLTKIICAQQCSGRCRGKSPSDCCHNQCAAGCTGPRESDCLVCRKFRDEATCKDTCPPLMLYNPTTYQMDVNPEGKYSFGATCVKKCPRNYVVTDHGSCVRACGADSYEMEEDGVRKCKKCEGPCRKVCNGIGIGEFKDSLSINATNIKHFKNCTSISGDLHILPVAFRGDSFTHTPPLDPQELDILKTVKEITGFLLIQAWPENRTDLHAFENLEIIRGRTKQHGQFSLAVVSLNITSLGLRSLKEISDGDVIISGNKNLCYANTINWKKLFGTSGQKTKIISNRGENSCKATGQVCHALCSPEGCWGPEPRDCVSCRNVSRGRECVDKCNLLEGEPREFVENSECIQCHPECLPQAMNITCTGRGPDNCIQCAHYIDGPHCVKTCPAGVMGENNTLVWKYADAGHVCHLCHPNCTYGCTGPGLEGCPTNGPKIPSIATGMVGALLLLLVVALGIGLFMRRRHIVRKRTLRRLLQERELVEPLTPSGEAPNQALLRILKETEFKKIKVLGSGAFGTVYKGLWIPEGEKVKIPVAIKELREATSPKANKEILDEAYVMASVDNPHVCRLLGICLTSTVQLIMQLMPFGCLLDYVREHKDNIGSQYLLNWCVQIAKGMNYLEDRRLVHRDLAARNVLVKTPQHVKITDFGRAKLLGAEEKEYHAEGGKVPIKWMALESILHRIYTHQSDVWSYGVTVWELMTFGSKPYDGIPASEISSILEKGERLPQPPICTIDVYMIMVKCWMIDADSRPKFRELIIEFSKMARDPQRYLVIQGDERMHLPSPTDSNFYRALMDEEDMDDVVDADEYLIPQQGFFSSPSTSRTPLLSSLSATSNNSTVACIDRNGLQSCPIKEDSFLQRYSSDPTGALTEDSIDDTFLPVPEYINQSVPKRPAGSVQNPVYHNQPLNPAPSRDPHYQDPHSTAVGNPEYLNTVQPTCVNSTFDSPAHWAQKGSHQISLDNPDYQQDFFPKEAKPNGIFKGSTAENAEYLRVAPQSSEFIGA
assay_comment: Inhibitory Activity for EGFR (L858R/T790M) Kinase
pIC50: −log10 of the molar value.
assay_readout: pIC50

Cc1cc2cc(n1)-c1cnn(C)c1OCCC[C@@H](C1CC1)CN1/C(=N/C2=O)Nc2ccc(NC(=O)CN(C)C)cc21    9.59
Cc1cc2cc(n1)-c1cnn(C)c1OCCC[C@@H](C1CC1)CN1/C(=N/C2=O)Nc2cc(N[C@H]3C[C@H](N(C)C)C3)ccc21    9.92
Cc1cc2cc(n1)-c1cnn(C)c1OCCC[C@@H](C1CC1)CN1/C(=N/C2=O)Nc2ccc(NCCCN3CCOCC3)cc21    10.36
Cc1cc2cc(n1)-c1cnn(C)c1OCCC[C@@H](C1CC1)CN1/C(=N/C2=O)Nc2ccc(NCCN3CCCCC3)cc21    10.40

a: Cc1cc2cc(n1)-c1cnn(C)c1OCCC[C@@H](C1CC1)CN1/C(=N/C2=O)Nc2cc(N[C@@H]3CC[C@@H](N(C)C)C3)ccc21
b: Cc1cc2cc(n1)-c1cnn(C)c1OCCC[C@@H](C1CC1)CN1/C(=N/C2=O)Nc2cc(NCCCN3CCCC3)ccc21
## Input a or b : whose pIC50 is greater? Reply with the label of the item you choose.
## Output b
